The reader will find reported growth values listed item by item below.
tested on: SK-OV-3 ovarian; test: NCI-60 one-dose screen, 48 h (100 = growth as untreated, 0 = no growth, -100 = all killed); details: 10 µM
This is part of a sample that, as a whole, favours compounds with a hit. Of some 83,000 tested, about 20% had one in any assay.
Form entry: value (%) — number only.

Known growth results, listed for orientation:
CC1[C@H]2[C@H](C[C@H]3[C@@H]4CC=C5c6sc(Nc7cccc(Cl)n7)nc6CC[C@]5(C)[C@H]4CC[C@@]32C)O[C@]12CC[C@@H](C)CO2 (some centres not stated) ... 108
COc1cc(C2CC(c3ccc(Oc4ccc(Cl)cc4)cc3)=NN2c2nc(-c3ccc(Cl)cc3)c(C#N)c(N3CCOCC3)n2)cc(OC)c1OC (configuration not stated) ... 102
O=C1NC2C=CC=CC2/C1=C1/SC(=S)N(C2CC(=O)N(c3ccc(Br)cc3)C2=O)C1=O (configuration not stated) ... 99.1
O=C(O)CCN1C(=O)/C(=C/C=C/c2ccc([N+](=O)[O-])o2)SC1=S ... 63.5
COc1ccc(C2OC[C@@]3(C)C4CC[C@]5(C)C(CC=C6C7CC(C)(C)CC[C@]7(C(=O)O)CC[C@]65C)[C@@]4(C)C[C@@H](O)[C@@H]3O2)cc1 (some centres not stated) ... 132
O=C(Nc1ccc(Oc2ncnc3scc(Nc4n[nH]c(=S)s4)c23)cc1)C1(C(=O)Nc2cccc(C(F)(F)F)c2)CC1 ... 93.7

Query: What does the data say about its growth? Entry: Cc1ccc2c(c1)C(=O)/C(=C/c1ccc([N+](=O)[O-])cc1)S2
Response: 87.4

Query: What does the data say about its growth? Entry: C#CCOc1cc(N(CC)CC)ccc1C(C(=O)NC(C)(C)C)N(C(=O)C1CCc2cc(F)ccc2O1)c1ccc(F)cc1F (configuration not stated)
Response: 46.8

Query: What does the data say about its growth? Entry: COc1cc2oc(-c3cccc(C(=O)Nc4ccc(Cl)cc4)c3)cc(=O)c2c(OCCN)c1OC
Response: -84.6

Query: What does the data say about its growth? Entry: Cn1cc(-c2nnc(N)nc2-c2c[nH]c3ccc(F)cc23)c2cc(Br)cnc21
Response: 98.8

Query: What does the data say about its growth? Entry: O=C1NC(=S)S/C1=C\c1cn(-c2ccccc2)nc1-c1ccc([N+](=O)[O-])cc1
Response: 6
